Experiment: qHTS for activators of Nrf2/ARE signaling pathway screened against the NCATS CANVASS Library (AID 1347391); note: nearly all actives have a fitted effect of over 60% in size
Conditions: ARE-bla HepG2, beta-lactamase reporter, 16 h; series mostly up to 46.1 µM
Results filed as inconclusive are left out. Calls of active or inactive are those of the source. Calls come from the whole dose curve; as a rule, active = well fitted activation curve with a large enough effect; inconclusive = small, poorly fitted or top-dose-only effect; inactive = no such curve, though single readings can be large or run the other way.
Output constraint: value belongs to active, inactive

Sample answers from the record:
C[C@@]12CCC[C@@](C)(C(=O)O)[C@H]1C[C@@H](O)[C@]13C[C@H]4C[C@H](O[C@@]4(C)C1)[C@@H]23: inactive
COc1c(O)cc2oc(-c3ccccc3)cc(=O)c2c1O: active
C/C=C/C=C/C1(O)C2C=C3C(=O)CC45C(=O)C(O)=C(C)C(=O)C4C1C1(C(=O)C(O)=C(C)C(=O)C351)C2C (centres undefined): inactive

Would you kindly look at the next entry?
Each molecule tested received a call. Report the one for CC12C[C@]3(O)O[C@@H](O1)[C@]1(COC(=O)c4ccccc4)[C@@H]3CC21OC1OC(CO)C(O)C(O)C1O (some centres undefined) .
inactive

---

Assay: G06 Cancer Cell Toxicity qHTS against the NCATS CANVASS Library (AID 1347368); note: nearly all actives have a fitted effect of over 60% in size
Settings: G06 dog glioma cells, viability ATP luminescence, 72 h; series mostly up to 46.1 µM
Records with an inconclusive call do not appear. Activity calls are given as the source filed them. The call rests on the fitted dose curve; in most records, active means well fitted cell-killing curve with a large enough effect; inconclusive means small, poorly fitted or top-dose-only effect; inactive means flat fitted curve, though single readings scatter.
The reply should be one of these categories: active, inactive

Example cases with answers are listed next.
CC(=O)NC[C@@H]1O[C@H](CC/C=C(C)/C(C)=C/C=O)[C@H](C)C[C@H]1O: inactive
C/C=C/C(=O)[C@@H](C)C1=CC(=O)C2=C(O[C@@]34CC[C@H](O)C(C)(C)[C@@H]3CC[C@H](C)[C@@]4(C)C2)C1=O: active

What classification did CC(O)/C=C/C1(O)C(C)(C)CC(O)CC1(C)O (stereo not given) end up with in this test?
inactive

How did this test come out for COc1ccc([C@@H]2c3cc(OC)c(OC)cc3C(=O)C(C)C2C)cc1OC (stereo not given in full) ?
inactive

Record lookup: outcome of this test for `O=C1C[C@@H](c2ccc(O)c(-c3c(O)cc(O)c4c3O[C@H](c3ccc(O)cc3)CC4=O)c2)Oc2cc(O)cc(O)c21` ?
inactive

Which outcome did this test record for the compound `C=C(C)C(=O)O[C@H]1C[C@H](C)[C@@H](OC(C)=O)CC[C@@]2(C)O[C@@H]2[C@H]2OC(=O)C(COC(C)=O)=C12` ?
active

Which result was noted for this compound in the test: `O=Cc1ccc2n1C[C@@]1(C[C@H](O)[C@@H](CO)O1)OC2`
inactive

Answer briefly: the call reported for `COc1cc(/C=C/C(=O)O)ccc1O` in this assay.
inactive

What outcome does the record of this test show for `CC1=CC[C@@]2(C[C@@H]1O)[C@@H](C(=O)O)CC[C@H]2C(C)C` ?
inactive

Name the outcome recorded for `C=C(C)CC[C@H](Cc1c(O)cc(O)c2c1O[C@H](c1ccc(O)cc1O)CC2=O)C(=C)C` in the assay.
inactive

---

Assay: Viability qHTS for inhibitors of the SERCaMP assay screened against the NCATS CANVASS Library (AID 1347400); note: nearly all actives have a fitted effect of over 70% in size
Conditions: SH-SY5Y SERCaMP cells viability, CellTiter-Glo, 48 h; series mostly up to 92.2 µM
Inconclusive results are not listed. The source made the active and inactive calls. Calls follow the shape of the dose curve; as a rule, active = well fitted cell-killing curve with a large enough effect; inconclusive = small, poorly fitted or top-dose-only effect; inactive = flat fitted curve, though single readings scatter.
Could you please pick one outcome from this set? yes for active, no for inactive

These solved cases illustrate the format of a correct answer.
OCc1ccc2ocnc2c1: no
C=C1C(=O)O[C@H]2C[C@H](C)[C@@H]3CC(=O)C(C)=C3[C@H](O)[C@H]12: yes

Any idea what this test logged for `CCC[C@@H](C)/C=C(\C)[C@H](O)[C@H](C)/C=C/CC[C@@H](O)[C@H](C)[C@H](O)[C@H](C)[C@H](O)[C@H](C)[C@H]1O[C@H]([C@H](C)C(=O)O)CC[C@@H]1C` ?
yes

For `CN1CC[C@]2(c3cccc4c3N[C@@H]3N(C)CC[C@]43[C@@]34CCN(C)[C@@H]3Nc3ccccc34)c3ccccc3N[C@H]12` , which call appears in the assay record?
yes

Data provenance: PubChem BioAssay (NCATS)
